- assay details: A CellTox Green Cytotoxicity Assay to monitor cytotoxicity in HepG2 cells - 24 hour (AID 1224878); note: nearly all actives have a fitted effect of over 45% in size
- conditions: CellTox Green fluorescence; series mostly up to 76.8 µM
Inconclusive results are not listed. Active and inactive are the calls of the source. Calls come from the whole dose curve; as a rule, active = well fitted activation curve with a large enough effect in the repeat runs; inconclusive = weak or mixed curves; inactive = flat fitted curve, though single readings scatter.
Possible outcomes: active, inactive

# compound, category label
rows = [
    ("c1ccc2c(c1)sc1ccccc12", "inactive"),
    ("CC(Oc1cccc(Cl)c1)C(=O)O (stereo not given)", "inactive"),
    ("CCSCc1ccccc1OC(=O)NC", "inactive"),
    ("SCc1ccccc1", "inactive"),
    ("Nc1cccc2ccccc12", "inactive"),
    ("CCOC(=O)NC(O)C(Cl)(Cl)Cl (stereo not given)", "inactive"),
    ("O=C(O)c1cc(Cl)ccc1Cl", "inactive"),
    ("CCNC(=O)NC(=O)/C(C#N)=N/OC", "inactive"),
    ("CC(C)c1ccc(NC(=O)N(C)C)cc1", "inactive"),
    ("C1CS1", "inactive"),
    ("C=CCc1ccc(OC(=O)Cc2ccccc2)c(OC)c1", "inactive"),
    ("CCCCCCCCP(=O)(O)O", "inactive"),
    ("CC(C)c1ccc(OP(=O)(Oc2ccc(C(C)C)cc2)Oc2ccc(C(C)C)cc2)cc1", "inactive"),
    ("Cc1ccc(N)c(C)c1", "inactive"),
    ("CCOC(C(=O)OCCN(C)C)(c1ccccc1)c1ccccc1", "inactive"),
    ("CN(C1CCCCC1)C1CCCCC1", "inactive"),
    ("Cc1cnc(C2=NC(C)(C(C)C)C(=O)N2)c(C(=O)O)c1 (stereo not given)", "inactive"),
    ("COc1ccc2c(c1OC)C(=O)O[C@H]2[C@@H]1c2cc3c(cc2CCN1C)OCO3", "inactive"),
    ("CN(C)C(=O)Nc1cccc(OC(=O)NC(C)(C)C)c1", "inactive"),
    ("C=CCSSCC=C", "inactive"),
    ("O=C(Cl)OCCOCCOC(=O)Cl", "inactive"),
    ("CCC(=O)O[C@@H]1C=C2CCC3C(CCC4(C)C3CC[C@@H]4OC(=O)CC)C2CC1 (stereo not given in full)", "inactive"),
    ("CC(=O)OC(c1ccccc1)C(Cl)(Cl)Cl (stereo not given)", "active"),
    ("C[C@H](N)[C@H](O)c1ccc(O)c(O)c1", "active"),
    ("O=C1NC(=O)C(=O)C(=O)N1", "inactive"),
]

Data provenance is PubChem BioAssay (Tox21).
